pIC50 values for the molecules below.
- tgt: CDK7/cyclin H (Homo sapiens, UniProt P50613)
- Sequence (P50613 whole entry, species assumed): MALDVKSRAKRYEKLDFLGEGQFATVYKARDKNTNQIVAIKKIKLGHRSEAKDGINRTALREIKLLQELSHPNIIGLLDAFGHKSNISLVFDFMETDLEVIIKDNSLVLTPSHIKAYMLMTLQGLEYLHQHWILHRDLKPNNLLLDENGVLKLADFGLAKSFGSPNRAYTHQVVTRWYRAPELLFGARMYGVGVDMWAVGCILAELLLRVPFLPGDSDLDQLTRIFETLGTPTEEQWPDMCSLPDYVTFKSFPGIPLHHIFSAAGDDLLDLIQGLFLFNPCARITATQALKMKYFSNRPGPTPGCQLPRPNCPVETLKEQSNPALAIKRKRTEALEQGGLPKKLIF
- Sequence (P51946 whole entry partner, species assumed): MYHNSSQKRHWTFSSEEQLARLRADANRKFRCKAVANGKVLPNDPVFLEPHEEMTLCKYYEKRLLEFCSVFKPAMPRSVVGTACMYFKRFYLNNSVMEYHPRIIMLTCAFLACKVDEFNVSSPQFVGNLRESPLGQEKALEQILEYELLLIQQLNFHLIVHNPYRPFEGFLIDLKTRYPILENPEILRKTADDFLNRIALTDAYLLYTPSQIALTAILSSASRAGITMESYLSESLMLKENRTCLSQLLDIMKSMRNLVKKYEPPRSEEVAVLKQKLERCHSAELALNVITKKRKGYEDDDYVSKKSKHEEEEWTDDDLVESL
- procedure-summary: Kinase assay, radioactive phosphate incorporation, CDK7/cyclin H
- assay-setup: 100 μM ATP, 30° C.; read-out: Kinase inhibition IC50 CDK7/cyclin H
pIC50: −log10 of the molar value.

{"molecule": "Oc1cccc(-c2ccnc(Nc3cccc(F)c3)n2)c1", "tgt": "CDK7/cyclin H (Homo sapiens, UniProt P50613)", "pIC50": 5.89}
{"molecule": "CS(=O)(=O)NCc1cccc(-c2ccnc(Nc3cccc([N+](=O)[O-])c3)n2)c1", "tgt": "CDK7/cyclin H (Homo sapiens, UniProt P50613)", "pIC50": 6.06}
{"molecule": "COc1ccc(-c2ccnc(Nc3ccc(O)cc3)n2)cc1", "tgt": "CDK7/cyclin H (Homo sapiens, UniProt P50613)", "pIC50": 5.82}
{"molecule": "N#Cc1cccc(Nc2nccc(-c3cccc(Cn4cncn4)c3)n2)c1", "tgt": "CDK7/cyclin H (Homo sapiens, UniProt P50613)", "pIC50": 6.49}
{"molecule": "COc1ccc(Nc2nccc(-c3cccc(C#N)c3)n2)cn1", "tgt": "CDK7/cyclin H (Homo sapiens, UniProt P50613)", "pIC50": 4.55}
{"molecule": "O=[N+]([O-])c1cccc(Nc2nccc(-c3cccc(CN4CCOCC4)c3)n2)c1", "tgt": "CDK7/cyclin H (Homo sapiens, UniProt P50613)", "pIC50": 7.42}
{"molecule": "COc1ccc(Nc2nccc(-c3cccc(CO)c3)n2)cn1", "tgt": "CDK7/cyclin H (Homo sapiens, UniProt P50613)", "pIC50": 5.23}
{"molecule": "COc1ccc(-c2ccnc(Nc3cccc(O)c3)n2)cc1", "tgt": "CDK7/cyclin H (Homo sapiens, UniProt P50613)", "pIC50": 6.92}
{"molecule": "O=[N+]([O-])c1cccc(Nc2nccc(-c3ccc(Cl)c(Cn4cncn4)c3)n2)c1", "tgt": "CDK7/cyclin H (Homo sapiens, UniProt P50613)", "pIC50": 4.70}
{"molecule": "COc1ccc(Nc2nccc(-c3cccc(CN(C)C)c3)n2)cn1", "tgt": "CDK7/cyclin H (Homo sapiens, UniProt P50613)", "pIC50": 6.00}
{"molecule": "CN(C)Cc1cccc(-c2ccnc(Nc3ccc(O)cc3)n2)c1", "tgt": "CDK7/cyclin H (Homo sapiens, UniProt P50613)", "pIC50": 5.85}
{"molecule": "COc1ccc(Nc2nccc(-c3cccc(CN4CCN(C)CC4)c3)n2)cn1", "tgt": "CDK7/cyclin H (Homo sapiens, UniProt P50613)", "pIC50": 4.44}
{"molecule": "CCN(CC)Cc1cccc(-c2ccnc(Nc3cccc([N+](=O)[O-])c3)n2)c1", "tgt": "CDK7/cyclin H (Homo sapiens, UniProt P50613)", "pIC50": 7.05}
{"molecule": "CCN(Cc1cccc(-c2ccnc(Nc3ccc(OC)nc3)n2)c1)C(C)C", "tgt": "CDK7/cyclin H (Homo sapiens, UniProt P50613)", "pIC50": 5.60}
{"molecule": "CC(=O)Nc1cccc(-c2ccnc(Nc3cccc([N+](=O)[O-])c3)n2)c1", "tgt": "CDK7/cyclin H (Homo sapiens, UniProt P50613)", "pIC50": 6.26}
{"molecule": "COc1ccc(Nc2nccc(-c3cccc(Cn4cncn4)c3)n2)cc1", "tgt": "CDK7/cyclin H (Homo sapiens, UniProt P50613)", "pIC50": 5.96}
{"molecule": "OCc1cc(CO)cc(Nc2nccc(-c3cccc(CN4CCCCC4CO)c3)n2)c1 (stereo not drawn)", "tgt": "CDK7/cyclin H (Homo sapiens, UniProt P50613)", "pIC50": 5.85}
{"molecule": "CCNc1cccc(-c2ccnc(Nc3ccc([N+](=O)[O-])cc3)n2)c1", "tgt": "CDK7/cyclin H (Homo sapiens, UniProt P50613)", "pIC50": 4.70}

###

- tgt: CDK2/cyclin A (Homo sapiens)
- procedure-summary: Kinase assay, radioactive phosphate incorporation, CDK2/cyclin A
- assay-setup: 100 μM ATP, 30° C.; read-out: Kinase inhibition IC50 CDK2/cyclin A
- Description: The compounds from the examples above were investigated for their ability to inhibit the enzymatic activity of various protein kinases. This was achieved by measurement of incorporation of radioactive phosphate from ATP into appropriate polypeptide substrates. […] After washing 3 times with 75 mM aq orthophosphoric acid, plates were dried, scintillant added and incorporated radioactivity measured in a scintillation counter (TopCount, Packard Instruments, Pangbourne, Berks, UK). […]
pIC50: −log10 of the molar value.
Reported pIC50 values for a set of compounds

{"compound": "O=[N+]([O-])c1cccc(Nc2nccc(-c3cccc(CN4CCCC(CCO)C4)c3)n2)c1 (centres unmarked)", "pIC50": 6.24}
{"compound": "COc1cccc(-c2ccnc(Nc3cccc(O)c3)n2)c1", "pIC50": 5.85}
{"compound": "O=[N+]([O-])c1cccc(Nc2nccc(-c3cccc(CO)c3)n2)c1", "pIC50": 6.33}
{"compound": "CN(C)Cc1cccc(-c2ccnc(Nc3ccc(N4CCOCC4)cc3)n2)c1", "pIC50": 5.82}
{"compound": "CCNc1cccc(-c2ccnc(Nc3ccc([N+](=O)[O-])cc3)n2)c1", "pIC50": 6.89}

###

- tgt: CDK9/cyclin T1 (Homo sapiens, UniProt P50750)
- Sequence (P50750 whole entry, species assumed): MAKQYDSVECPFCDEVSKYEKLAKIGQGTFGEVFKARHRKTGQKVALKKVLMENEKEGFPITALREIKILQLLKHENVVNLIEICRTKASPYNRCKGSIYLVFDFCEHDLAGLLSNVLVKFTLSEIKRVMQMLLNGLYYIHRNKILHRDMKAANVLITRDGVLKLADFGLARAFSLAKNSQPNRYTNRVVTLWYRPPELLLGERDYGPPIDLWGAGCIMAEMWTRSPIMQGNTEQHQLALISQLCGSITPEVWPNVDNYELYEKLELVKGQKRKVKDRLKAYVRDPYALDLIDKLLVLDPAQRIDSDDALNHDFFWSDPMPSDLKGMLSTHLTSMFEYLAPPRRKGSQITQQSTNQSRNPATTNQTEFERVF
- Sequence (O60563 whole entry partner, species assumed): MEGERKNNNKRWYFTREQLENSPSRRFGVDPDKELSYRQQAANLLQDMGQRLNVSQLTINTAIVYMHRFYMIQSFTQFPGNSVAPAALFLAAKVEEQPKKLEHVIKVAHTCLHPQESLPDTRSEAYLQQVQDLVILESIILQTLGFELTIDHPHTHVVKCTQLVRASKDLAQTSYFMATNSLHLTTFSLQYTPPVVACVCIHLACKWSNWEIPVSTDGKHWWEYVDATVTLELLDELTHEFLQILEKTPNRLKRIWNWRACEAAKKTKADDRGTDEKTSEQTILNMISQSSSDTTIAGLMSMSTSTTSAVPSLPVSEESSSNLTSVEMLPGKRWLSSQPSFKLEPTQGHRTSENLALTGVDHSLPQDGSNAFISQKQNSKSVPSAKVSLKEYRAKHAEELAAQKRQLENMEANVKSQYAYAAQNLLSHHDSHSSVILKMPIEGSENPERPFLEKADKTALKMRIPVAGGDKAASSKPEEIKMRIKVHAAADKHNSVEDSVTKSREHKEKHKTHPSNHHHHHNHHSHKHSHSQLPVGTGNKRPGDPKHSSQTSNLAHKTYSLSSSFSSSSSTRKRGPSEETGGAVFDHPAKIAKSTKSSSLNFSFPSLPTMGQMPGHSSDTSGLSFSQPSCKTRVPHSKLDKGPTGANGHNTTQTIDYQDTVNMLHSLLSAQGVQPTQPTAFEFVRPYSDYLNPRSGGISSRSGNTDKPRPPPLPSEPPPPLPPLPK
- procedure-summary: Kinase assay, radioactive phosphate incorporation, CDK9/cyclin T1
- assay-setup: 100 μM ATP, 30° C.; read-out: Kinase inhibition IC50 CDK9/cyclin T1
pIC50: −log10 of the molar value.
Recorded measurements of pIC50, one per entry
quantity-kind: pIC50

{"compound": "CCNc1cccc(-c2ccnc(Nc3ccc([N+](=O)[O-])cc3)n2)c1", "quantity-kind": "pIC50", "reading": 7.23}
{"compound": "CN(C)Cc1cccc(-c2ccnc(Nc3ccc(O)cc3)n2)c1", "quantity-kind": "pIC50", "reading": 7.70}
{"compound": "Oc1cccc(Nc2nccc(-c3cccc(C(F)(F)F)c3)n2)c1", "quantity-kind": "pIC50", "reading": 7.05}
{"compound": "CCN(Cc1cccc(-c2ccnc(Nc3ccc(OC)nc3)n2)c1)C(C)C", "quantity-kind": "pIC50", "reading": 7.55}
{"compound": "COc1ccc(Nc2nccc(-c3cccc(C#N)c3)n2)cn1", "quantity-kind": "pIC50", "reading": 5.52}
{"compound": "OCC1CCCCN1Cc1cccc(-c2ccnc(Nc3ccc(N4CCOCC4)cc3)n2)c1 (stereo not shown)", "quantity-kind": "pIC50", "reading": 5.54}
{"compound": "CN(c1cccc(-c2ccnc(Nc3cccc(O)c3)n2)c1)S(C)(=O)=O", "quantity-kind": "pIC50", "reading": 8.40}
{"compound": "COc1ccc(Nc2nccc(-c3cccc(CN4CCCCC4CO)c3)n2)cn1 (stereo not shown)", "quantity-kind": "pIC50", "reading": 6.31}
{"compound": "Oc1cccc(-c2ccnc(Nc3cccc(F)c3)n2)c1", "quantity-kind": "pIC50", "reading": 6.74}
{"compound": "OCc1cccc(-c2ccnc(Nc3cccc(O)c3)n2)c1", "quantity-kind": "pIC50", "reading": 7.40}
{"compound": "CN(C)Cc1cccc(-c2ccnc(Nc3ccc(N4CCOCC4)cc3)n2)c1", "quantity-kind": "pIC50", "reading": 6.48}
{"compound": "CCN(Cc1cccc(-c2ccnc(Nc3cccc([N+](=O)[O-])c3)n2)c1)C(C)C", "quantity-kind": "pIC50", "reading": 8.70}
{"compound": "COc1ccc(Nc2nccc(-c3cccc(CN4CCN(C)CC4)c3)n2)cn1", "quantity-kind": "pIC50", "reading": 6.72}
{"compound": "COc1ccc(Nc2nccc(-c3cccc(CN(C)C)c3)n2)cn1", "quantity-kind": "pIC50", "reading": 7.70}
{"compound": "COc1cccc(-c2ccnc(Nc3cccc(O)c3)n2)c1", "quantity-kind": "pIC50", "reading": 8.30}
{"compound": "COc1ccc(Nc2nccc(-c3cccc(N(C)S(C)(=O)=O)c3)n2)cn1", "quantity-kind": "pIC50", "reading": 7.22}
{"compound": "O=[N+]([O-])c1cccc(Nc2nccc(-c3cccc(CN4CCCCC4CO)c3)n2)c1 (stereo not shown)", "quantity-kind": "pIC50", "reading": 8.00}
{"compound": "N#Cc1cccc(Nc2nccc(-c3cccc(Cn4cncn4)c3)n2)c1", "quantity-kind": "pIC50", "reading": 8.05}
{"compound": "O=[N+]([O-])c1cccc(Nc2nccc(-c3cccc(CO)c3)n2)c1", "quantity-kind": "pIC50", "reading": 10.00}

###

- tgt: CDK2/cyclin E (Homo sapiens)
- procedure-summary: Kinase assay, radioactive phosphate incorporation, CDK2/cyclin E
- assay-setup: 100 μM ATP, 30° C.; read-out: Kinase inhibition IC50 CDK2/cyclin E
pIC50: −log10 of the molar value.
# pIC50 annotations
quantity-kind: pIC50

{"molecule": "COc1ccc(OC)c(-c2ccnc(Nc3ccc(O)cc3)n2)c1 [Compound 45]", "tgt": "CDK2/cyclin E (Homo sapiens)", "quantity-kind": "pIC50", "reading": 5.24}
{"molecule": "CN(C)Cc1cccc(-c2ccnc(Nc3ccc(O)cc3)n2)c1 [Compound 81]", "tgt": "CDK2/cyclin E (Homo sapiens)", "quantity-kind": "pIC50", "reading": 6.96}
{"molecule": "O=[N+]([O-])c1cccc(Nc2nccc(-c3cccc(CO)c3)n2)c1 [Compound 91]", "tgt": "CDK2/cyclin E (Homo sapiens)", "quantity-kind": "pIC50", "reading": 7.22}
{"molecule": "CC(=O)Nc1cccc(-c2ccnc(Nc3cccc(O)c3)n2)c1 [Compound 67]", "tgt": "CDK2/cyclin E (Homo sapiens)", "quantity-kind": "pIC50", "reading": 6.11}
{"molecule": "CCN(CC)Cc1cccc(-c2ccnc(Nc3cccc([N+](=O)[O-])c3)n2)c1 [Compound 84]", "tgt": "CDK2/cyclin E (Homo sapiens)", "quantity-kind": "pIC50", "reading": 7.22}
{"molecule": "Oc1ccc(Nc2nccc(-c3ccc(Cl)c(Cl)c3)n2)cc1 [Compound 21]", "tgt": "CDK2/cyclin E (Homo sapiens)", "quantity-kind": "pIC50", "reading": 5.46}
{"molecule": "CC(=O)Nc1cccc(-c2ccnc(Nc3ccccc3)n2)c1 [Compound 66]", "tgt": "CDK2/cyclin E (Homo sapiens)", "quantity-kind": "pIC50", "reading": 5.55}
{"molecule": "Oc1cccc(Nc2nccc(-c3cccc(Cn4cncn4)c3)n2)c1 [Compound 34]", "tgt": "CDK2/cyclin E (Homo sapiens)", "quantity-kind": "pIC50", "reading": 6.62}
{"molecule": "O=[N+]([O-])c1cccc(Nc2nccc(-c3cccc(O)c3)n2)c1 [Compound 55]", "tgt": "CDK2/cyclin E (Homo sapiens)", "quantity-kind": "pIC50", "reading": 7.40}
